Value source: paper PMC6504873

target: WT PfPKG (Plasmodium falciparum, UniProt Q8I719); construct: recombinant full length wild type (WT) PfPKG; His6 (N); host or cells: E. coli BL21; parameters: species or system P. falciparum; conditions: lipophilic ligand efficiency
Sequence (Q8I719 whole entry): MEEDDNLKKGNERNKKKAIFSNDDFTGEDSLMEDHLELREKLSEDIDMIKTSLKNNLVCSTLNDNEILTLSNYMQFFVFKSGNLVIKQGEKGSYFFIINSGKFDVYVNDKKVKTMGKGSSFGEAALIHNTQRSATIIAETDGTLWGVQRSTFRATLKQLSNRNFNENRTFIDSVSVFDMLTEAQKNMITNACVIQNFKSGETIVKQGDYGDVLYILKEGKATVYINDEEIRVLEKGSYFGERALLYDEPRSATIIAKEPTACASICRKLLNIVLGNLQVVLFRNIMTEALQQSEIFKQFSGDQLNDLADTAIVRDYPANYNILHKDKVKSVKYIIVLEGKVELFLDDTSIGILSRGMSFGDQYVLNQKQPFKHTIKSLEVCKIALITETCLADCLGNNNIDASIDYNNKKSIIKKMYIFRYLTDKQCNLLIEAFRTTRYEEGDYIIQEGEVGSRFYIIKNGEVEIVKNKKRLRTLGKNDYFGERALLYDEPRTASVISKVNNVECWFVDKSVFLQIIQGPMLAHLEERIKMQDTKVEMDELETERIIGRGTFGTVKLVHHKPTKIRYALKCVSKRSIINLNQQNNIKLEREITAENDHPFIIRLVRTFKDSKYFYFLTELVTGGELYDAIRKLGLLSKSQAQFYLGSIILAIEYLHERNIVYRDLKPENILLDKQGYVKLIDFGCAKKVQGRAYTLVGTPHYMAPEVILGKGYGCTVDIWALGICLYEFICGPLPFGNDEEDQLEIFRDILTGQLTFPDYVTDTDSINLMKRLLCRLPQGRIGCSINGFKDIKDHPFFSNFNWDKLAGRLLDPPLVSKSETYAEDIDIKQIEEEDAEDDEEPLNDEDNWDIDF
What LLE was measured for each of the following?
Numbers only.

Recorded LLE, per entry:
Fill: LLE (WT PfPKG (Plasmodium falciparum, UniProt Q8I719)) for this compound COc1ccc(-c2c(-c3cccc(C(=O)N4CCN(C)CC4)c3)oc3ncnc(N)c23)cc1 5.4

Fill: LLE (WT PfPKG (Plasmodium falciparum, UniProt Q8I719)) for this compound CNS(=O)(=O)c1cccc(Nc2ccnc(Nc3cccc(S(=O)(=O)NC)c3)n2)c1 4.5

Fill: LLE (WT PfPKG (Plasmodium falciparum, UniProt Q8I719)) for this compound Nc1ccc2c(-c3ccncc3)c(-c3ccc(Cl)c(O)c3)[nH]c2n1 4.9

Fill: LLE (WT PfPKG (Plasmodium falciparum, UniProt Q8I719)) for this compound NCCNCc1ccc(-c2cc3ccncc3cc2OC2CCNCC2)s1 4.7

Now for the compound whose LLE we want.
Fill: LLE (WT PfPKG (Plasmodium falciparum, UniProt Q8I719)) for this compound Nc1nc(Nc2cccc3cnccc23)nn1C(=O)C1CCCCC1 3.6
